- Measured Target: T1, human G-protein-coupled receptor family C group 5 member D (GPRC5D) (human, UniProt Q9NZD1 1-345)
- T1 construct: whole, on cells; also called human GPRC5D protein
- T1 sequence (Q9NZD1 whole entry): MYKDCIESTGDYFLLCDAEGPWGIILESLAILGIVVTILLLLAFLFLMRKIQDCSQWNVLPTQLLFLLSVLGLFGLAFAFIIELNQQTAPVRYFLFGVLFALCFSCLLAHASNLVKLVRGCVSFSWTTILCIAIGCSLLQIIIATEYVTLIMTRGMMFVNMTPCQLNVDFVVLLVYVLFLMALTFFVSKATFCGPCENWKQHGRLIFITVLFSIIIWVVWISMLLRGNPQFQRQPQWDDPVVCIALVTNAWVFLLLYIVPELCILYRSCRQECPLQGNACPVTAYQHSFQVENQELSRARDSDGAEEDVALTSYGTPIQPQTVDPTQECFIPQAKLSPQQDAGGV
- Test Summary: FACS, CHO-K1/GPRC5D
Kindly state Bottom for each of the entries shown.
Output spec: single numeric token, no unit.

// 58-H2L3 (antibody, V domains shown, humanized 58F9G10, VH v2 x VL v3) VH: QVQLVQSGAEVKKPGASVKVSCKASGYSFTGYYIHWVRQAPGQGLEWIGYISSYNAATSFNQKFKGRVTFTVDTSTSTVYMELSSLRSEDTAVYYCARTELRGPWFAYWGQGTLVTVSS VL: DTQLTQSPSSLSASVGDRVTMTCSASSSVSYMNWYQQKPGKAPKRLIYDTSKLASGVPSRFSGSGSGTDYTLTISSMQPEDFATYYCQQWSNNPLTFGQGTKLEIK : Bottom value = 1230

Item: 58-H3L1 (antibody, V domains shown, humanized 58F9G10, VH v3 x VL v1) VH: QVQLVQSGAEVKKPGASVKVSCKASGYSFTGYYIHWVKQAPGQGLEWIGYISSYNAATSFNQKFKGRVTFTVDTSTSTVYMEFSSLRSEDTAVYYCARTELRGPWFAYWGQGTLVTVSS VL: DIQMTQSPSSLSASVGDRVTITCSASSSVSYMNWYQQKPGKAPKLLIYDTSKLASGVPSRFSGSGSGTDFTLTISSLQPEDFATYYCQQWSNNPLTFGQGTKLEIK | Bottom: 9890

Measured Bottom of 58-H3L2 (antibody, V domains shown, humanized 58F9G10, VH v3 x VL v2) VH: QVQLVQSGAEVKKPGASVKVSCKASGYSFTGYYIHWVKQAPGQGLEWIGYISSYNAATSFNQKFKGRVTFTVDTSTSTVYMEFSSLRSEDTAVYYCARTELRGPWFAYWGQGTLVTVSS VL: DTQMTQSPSSLSASVGDRVTITCSASSSVSYMNWYQQKPGKAPKRLIYDTSKLASGVPSRFSGSGSGTDYTLTISSLQPEDFATYYCQQWSNNPLTFGQGTKLEIK : 5980

Record summary for 58F9G10-XI (antibody, V domains shown, also called 58F9G10 (chimeric); 58-XI) VH: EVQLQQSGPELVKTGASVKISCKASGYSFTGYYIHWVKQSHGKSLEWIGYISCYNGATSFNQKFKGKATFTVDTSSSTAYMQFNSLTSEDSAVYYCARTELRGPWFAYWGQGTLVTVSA VL: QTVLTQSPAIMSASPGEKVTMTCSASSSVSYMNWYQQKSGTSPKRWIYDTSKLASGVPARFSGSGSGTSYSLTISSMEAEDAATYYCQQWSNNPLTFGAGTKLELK : reported Bottom = 6700

For record 58-H2L1 (antibody, V domains shown, humanized 58F9G10, VH v2 x VL v1) VH: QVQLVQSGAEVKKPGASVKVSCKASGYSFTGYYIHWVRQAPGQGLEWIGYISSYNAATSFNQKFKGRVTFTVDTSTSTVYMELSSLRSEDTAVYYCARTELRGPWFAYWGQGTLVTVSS VL: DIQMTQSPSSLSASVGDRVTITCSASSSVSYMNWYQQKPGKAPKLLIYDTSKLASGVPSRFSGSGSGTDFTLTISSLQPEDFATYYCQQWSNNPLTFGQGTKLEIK the listed Bottom is 3620
